test system: HOP-62 complex spheroids with HUVEC/MSC, viability; assay: Anticancer human tumor HOP-62 cell line growth inhibition [RAS]; details: second compound 0.00949 µM; first compound 0.01 µM; stronger effect = lower value;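 note: spheroids exposed to agents for seven days before readout; 100% = DMSO vehicle control viability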
Reported property: viability, T/C (%)

Compound	Tested on	Recorded value
CCN1CCN(Cc2ccc(Nc3ncc(F)c(-c4cc(F)c5nc(C)n(C(C)C)c5c4)n3)nc2)CC1 + CCn1c(-c2cc(N3CCN(C)CC3)cnc2C(C)OC)c2c3cc(ccc31)-c1csc(n1)CC(NC(=O)C1CC1C)C(=O)N1CCCC(N1)C(=O)OCC(C)(C)C2	HOP-62 complex spheroids with HUVEC/MSC, viability	57.9
C=CC(=O)N1CCN(c2nc(OCC3CCCN3C)nc3c(F)c(-c4nc(N)cc(C)c4C(F)(F)F)c(Cl)cc23)C(C)C1 (centres undefined) + CCn1c(-c2cc(N3CCN(C)CC3)cnc2C(C)OC)c2c3cc(ccc31)-c1csc(n1)CC(NC(=O)C1CC1C)C(=O)N1CCCC(N1)C(=O)OCC(C)(C)C2	HOP-62 complex spheroids with HUVEC/MSC, viability	52.2
CC(C)n1nc(-c2ccc3oc(N)nc3c2)c2c(N)ncnc21 + CCn1c(-c2cc(N3CCN(C)CC3)cnc2C(C)OC)c2c3cc(ccc31)-c1csc(n1)CC(NC(=O)C1CC1C)C(=O)N1CCCC(N1)C(=O)OCC(C)(C)C2	HOP-62 complex spheroids with HUVEC/MSC, viability	48.9
C=CC(=O)Nc1cc(Nc2nccc(-c3cn(C)c4ccccc34)n2)c(OC)cc1N(C)CCN(C)C + CCn1c(-c2cccnc2C(C)OC)c2c3cc(ccc31)N1CCOC(CC(NC(=O)C(C(C)C)N(C)C(=O)C3(F)CCN(C(=O)C#CC(C)(C)N(C)C)CC3)C(=O)N3CCCC(N3)C(=O)OCC(C)(C)C2)C1	HOP-62 complex spheroids with HUVEC/MSC, viability	84.2
